// reported Ratio per item
Test: Downregulation of TRP2 expression in theophylline-stimulated mouse B16-4A5 cells assessed as ratio of TRP2 mRNA expression to beta-actin mRNA expression at 10 uM after 72 hrs by qRT-PCR analysis (reference value: […] +/- […])
Type: functional, cell-based
value-type: Ratio

[[record]]
compound = "C=C[C@H](OC(C)=O)c1ccc(OC(C)=O)cc1 [1'-ACETOXYCHAVICOL ACETATE]"
result = 0.34

[[record]]
compound = "C=CC(OC/C=C/c1ccc(OC(C)=O)cc1)c1ccc(OC(C)=O)cc1 (racemic)"
result = 0.81

[[record]]
compound = "C=C[C@H](OC/C=C/c1ccc(OC(C)=O)cc1)c1ccc(OC(C)=O)cc1"
result = 1.43

[[record]]
compound = "C=C[C@@H](OC/C=C/c1ccc(OC(C)=O)cc1)c1ccc(OC(C)=O)cc1"
result = 0.88

[[record]]
compound = "C=C[C@H](OC(C)=O)c1ccc(OC(C)=O)c(OC)c1"
result = 0.88


---

Test: Cytotoxicity against theophylline-stimulated mouse B16-4A5 cells assessed as cell viability at 30 uM after 72 hrs by MTT assay relative to control
Assay type: toxicity
Details: theophylline-stimulated B16-4A5 cells, read-out: Activity
Threshold-based label: viability at 72 h, 30 µM under 70% gives yes, viability at 72 h, 30 µM not under 70% gives no.

[[record]]
compound = "O=Cc1ccc(O)cc1 [4-HYDROXYBENZALDEHYDE]"
group_label = "no"

[[record]]
compound = "CC(=O)OC/C=C/c1ccc(O)cc1"
group_label = "no"

[[record]]
compound = "CC[C@H](OC(C)=O)c1ccc(OC(C)=O)cc1"
group_label = "no"

[[record]]
compound = "COc1cc(/C=C/CO)ccc1OC(C)=O"
group_label = "yes"

[[record]]
compound = "COc1cc(/C=C/C=O)ccc1O [CONIFERYL ALDEHYDE]"
group_label = "no"

[[record]]
compound = "CC(=O)Oc1ccc(/C=C/CO)cc1"
group_label = "yes"

[[record]]
compound = "OC/C=C/c1ccc(O)cc1"
group_label = "no"


---

Experiment: Cytotoxicity against theophylline-stimulated mouse B16-4A5 cells assessed as cell viability at 3 uM after 72 hrs by MTT assay relative to control
Assay type: toxicity
Settings: theophylline-stimulated B16-4A5 cells, read-out: Activity
viability at 72 h, 3 µM values, listed per item
value-type: viability at 72 h, 3 µM (%)

[[record]]
compound = "C=CC(OC(C)=O)c1ccc(OC(C)=O)cc1 (racemic)"
value_type = "viability at 72 h, 3 µM"
result = 108

[[record]]
compound = "C=C[C@H](OC/C=C/c1ccc(O)cc1)c1ccc(O)cc1"
value_type = "viability at 72 h, 3 µM"
result = 120

[[record]]
compound = "CC[C@H](OC(C)=O)c1ccc(OC(C)=O)cc1"
value_type = "viability at 72 h, 3 µM"
result = 106

[[record]]
compound = "C=C[C@H](O)c1ccc(OC(C)=O)c(OC)c1"
value_type = "viability at 72 h, 3 µM"
result = 104

[[record]]
compound = "COc1cc(/C=C/CO)ccc1OC(C)=O"
value_type = "viability at 72 h, 3 µM"
result = 90.6

[[record]]
compound = "C=C[C@@H](OC/C=C/c1ccc(OC(C)=O)cc1)c1ccc(OC(C)=O)cc1"
value_type = "viability at 72 h, 3 µM"
result = 81.5

[[record]]
compound = "C=C[C@@H](OC(C)=O)c1ccc(OC(C)=O)cc1"
value_type = "viability at 72 h, 3 µM"
result = 95.2

[[record]]
compound = "C=CC(OC/C=C/c1ccc(O)cc1)c1ccc(O)cc1 (racemic)"
value_type = "viability at 72 h, 3 µM"
result = 104

[[record]]
compound = "COC/C=C/c1ccc(O)cc1"
value_type = "viability at 72 h, 3 µM"
result = 109

[[record]]
compound = "OC/C=C/c1ccc(O)cc1"
value_type = "viability at 72 h, 3 µM"
result = 98.9

[[record]]
compound = "CC(=O)OC/C=C/c1ccc(O)cc1"
value_type = "viability at 72 h, 3 µM"
result = 99.2


The values you see were collected from ChEMBL document CHEMBL3864140.
